Assay: Human HepG2 cell viability assay in 384 well format
Format: toxicity, cell-based
Set-up: dose 125 nL, time 70.5 hour; concentration not given beside the values
Conditions: HepG2 cells, read-out: Inhibition
Would you mind telling me the reported cytotoxicity at 70.5 h of each entry?
Reply with the number, then its unit.

Data request: Sample CCC(C)c1csc(NC(=O)c2sc(-c3nnc[nH]3)nc2C)n1 (stereo unspecified) — what was its cytotoxicity at 70.5 h?
Data returned: -9.94%

Data request: Report cytotoxicity at 70.5 h for `Cc1nc2c(c(NCc3cnc4c(c3)CCC4)n1)CNC2` please.
Data returned: -6.06%

Data request: Record request: cytotoxicity at 70.5 h value, item Cc1cc(C)n(CC2CCCN2CC(=O)N(C)Cc2ccc(C)o2)n1 (stereo unspecified)
Data returned: 18%

Data request: Entry under review: `O=C(Nc1ccccc1OCCc1ccccn1)N1CC[C@@H](O)C1` . Reported cytotoxicity at 70.5 h?
Data returned: -31%

Data request: Given `Cc1cccc(CN2C[C@@H]3COC[C@H](NS(C)(=O)=O)[C@@H]3C2)n1` , state its recorded cytotoxicity at 70.5 h.
Data returned: -15.5%

Data request: cytotoxicity at 70.5 h for `COCc1nc2cc(NCc3cc[nH]n3)ccc2o1` ?
Data returned: -2.44%

###

Provide the reported cytotoxicity at 70.5 h of each item.
Experiment: Human HepG2 cell viability assay in 384 well format
Type: toxicity, cell-based
Set-up: dose 125 nL, time 70.5 hour; concentration not given beside the values
Details: HepG2 cells, read-out: Inhibition
Dear colleague, please return just the value in %, with no unit written.

Data request: Any idea what cytotoxicity at 70.5 h was measured for `COCCNC(=O)[C@H]1CC[C@@H]2[C@@H](CCN2S(C)(=O)=O)O1` ?
Data returned: 11.5

Data request: Query (compound): Cc1cnn(CC2CCCN2CC(=O)NC2CCOCC2)c1 (centres undefined) ; field requested: cytotoxicity at 70.5 h
Data returned: 0.77

Data request: For `CN1CCC(N2CCN3C(=O)NC[C@H]3C2)CC1` , what is its reported cytotoxicity at 70.5 h?
Data returned: -3.25

Data request: # input compound: `O=c1n(CCNCc2ccc(-c3ccccc3)cc2)nc2ccccn12` ; wanted: its cytotoxicity at 70.5 h
Data returned: -8.68

Data request: For the compound `COC(=O)c1ccc(CN2CCC(c3n[nH]c(C)n3)CC2)s1` , what cytotoxicity at 70.5 h is on record?
Data returned: -0.468

Data request: Name the recorded cytotoxicity at 70.5 h for `COCCN1CC[C@@H]2OC[C@H](C(=O)N(C)Cc3ccccn3)C[C@@H]2C1` .
Data returned: -3.83

Data request: Report cytotoxicity at 70.5 h for `CO[C@H]1CN(S(=O)(=O)c2ccc(C)cc2)C[C@@]12CCCO2` please.
Data returned: -6.6

Data request: Which cytotoxicity at 70.5 h is reported for this compound? `COc1cccc(CN(C)CC2=Nc3ccccc3S(=O)(=O)N2)c1`
Data returned: -8.56

Data request: Endpoint output: cytotoxicity at 70.5 h of `Cn1cc(CN2CCC3(CC2)CCN(Cc2ccccn2)CC3)cn1` . Value?
Data returned: 12

Data request: // cytotoxicity at 70.5 h lookup, key: Cc1cn(CC(=O)NC2CCC(C(=O)O)CC2)c2ccccc12 (centres undefined)
Data returned: -6.01

Data request: Item `CCCN(Cc1ccc(C#N)cc1)Cc1nnsc1Cl` has what recorded cytotoxicity at 70.5 h?
Data returned: 26.4

Data request: Please give the measured cytotoxicity at 70.5 h for this compound: `CNC(=O)N1CC[C@H]2N(C)CC[C@@]2(C(=O)N2CCOCC2)CC1`
Data returned: -4.42

Data request: Consider the compound `CCOc1ccnc(N2CCCN(C(=O)c3cc[nH]c3C)CC2)n1` and give its measured cytotoxicity at 70.5 h.
Data returned: 17.6

Data request: For the compound shown here, `COC(=O)CCCNC(=O)Nc1ccccc1OC` , give the reported cytotoxicity at 70.5 h.
Data returned: 12.5

Data request: What measured cytotoxicity at 70.5 h goes with COCCn1cc(C(=O)N2CCCC2c2ccc(F)cc2)ccc1=O (centres undefined) ?
Data returned: -1.67

Data request: Bench note: what cytotoxicity at 70.5 h did `Cc1nn(C)c2c(=O)n(CC(=O)NCc3ccccn3)ccc12` show?
Data returned: 0.706

Data request: Reported cytotoxicity at 70.5 h, compound `Cc1nc(C)c(C(=O)N2CCc3[nH]nc(COc4ccccc4)c3C2)s1` : ____
Data returned: -1.76

Data request: Give the measured cytotoxicity at 70.5 h of `CCN(CC)c1ccc(C(=O)NCc2cccnc2-n2cncn2)cn1` .
Data returned: -10.7

Data request: Look up cytotoxicity at 70.5 h for this compound: `O=C(Cc1cccs1)N1C[C@@H]2COC[C@]2(COCc2cccnc2)C1`
Data returned: -5.53

Data request: Using the record for `CN(CCN1CCOCC1)C(=O)CCc1cccc(Cl)c1` , report its cytotoxicity at 70.5 h.
Data returned: 20.6

Data request: // cytotoxicity at 70.5 h lookup, key: O=C(N1CCCC1)N1CCc2ncnc(C3CCOC3)c2CC1 (centres undefined)
Data returned: -9.08

Data request: Query: cytotoxicity at 70.5 h; subject: CCc1nc(C)c(C(C)N(C)CCc2ccncc2)s1 (centres undefined)
Data returned: 0.87

Data request: Entry under review: CC(=O)N1CC(c2ncn(C(C)C)n2)c2cc(C(=O)NC(C)C)ccc21 (centres undefined) . Reported cytotoxicity at 70.5 h?
Data returned: -4.9

Data request: # query: cytotoxicity at 70.5 h of entry CCOc1ncccc1NC(=O)NCC(C)O (centres undefined)
Data returned: -3.67

###

For each entry below, report its cytotoxicity at 70.5 h value.
Assay: Human HepG2 cell viability assay in 384 well format
Format: toxicity, cell-based
Set-up: dose 125 nL, time 70.5 hour; concentration not given beside the values
Conditions: HepG2 cells, read-out: Inhibition
All answers are understood in %, so give the number only.

Data request: Requested read-out: cytotoxicity at 70.5 h. Entry: OC1(CN2CCCC(Cn3cncn3)C2)CCCCC1 (configuration not stated)
Data returned: 6.45

Data request: Name the recorded cytotoxicity at 70.5 h for `Cn1ncc2c(N3CCN(CCO)CC3)nc(C3CCCC3)nc21` .
Data returned: -14.2

Data request: Quick one: cytotoxicity at 70.5 h of CC(=O)N(c1ccc(C)cc1)c1nc(CN2CCCCC2C)cs1 (configuration not stated) ?
Data returned: 16.8

Data request: Fill blank: measured cytotoxicity at 70.5 h of the molecule `CN(C)c1ccc(CN2CCN(c3ccc(C#N)cc3)C(=O)C2)cn1` is ____.
Data returned: -7.99

Data request: I'd like to know its cytotoxicity at 70.5 h. The molecule in question is `Nc1nc2c(c(N3CCSCC3)n1)CCN(Cc1ccccn1)CC2`
Data returned: -2.53

Data request: Reported cytotoxicity at 70.5 h for COc1ccc(C(C)N2CCC(C(=O)N(C)C)CC2)cc1Cl (configuration not stated) : what is it?
Data returned: -7.99

Data request: Requested read-out: cytotoxicity at 70.5 h. Entry: `Cc1ccc(-c2[nH][nH]c(=O)c2CCN)cc1`
Data returned: -14.2

Data request: Item `COC[C@@]12CC[C@@H](N3CCOCC3)C[C@H]1CCN(c1ncccn1)C2` has what recorded cytotoxicity at 70.5 h?
Data returned: -10.2

Data request: Requested field: cytotoxicity at 70.5 h. Item: N#CCCCOc1cccc(CN2CCCC2c2ccc[nH]2)c1 (configuration not stated)
Data returned: 1.38

Data request: // lookup cytotoxicity at 70.5 h for `NC(=O)CN1CCC(OCc2ccc(Cl)c(Cl)c2)CC1`
Data returned: -1.02

Data request: State the recorded cytotoxicity at 70.5 h for this entry: `O=C(c1ccoc1)N1CCC2(CC1)C(=O)N(CC1CC1)c1ccccc12`
Data returned: -2.01

Data request: So what's the measured cytotoxicity at 70.5 h for this one? `Cc1nn(C(C)C)c(C)c1NC(=O)Nc1cccnc1N1CCCC1`
Data returned: -8.9

Data request: # get_value(readout='cytotoxicity at 70.5 h', item= `Cc1ccc(C(=O)N2C[C@@H]3CCCO[C@@H]3[C@H](N(C)Cc3ccco3)C2)o1` )
Data returned: 28.7

Data request: Returns the measured cytotoxicity at 70.5 h for the input molecule. Input: `CNc1ccnc(NCCC(=O)Nc2ccccc2C)n1`
Data returned: -4.65

Data request: Item under review: CC(COc1ccccc1)NCc1cn2ccccc2n1 (configuration not stated) . Reported cytotoxicity at 70.5 h?
Data returned: -4.87

Data request: Item O=C(Nc1ccccc1)C1CCCN(C(=O)Cn2cncn2)C1 (configuration not stated) has what recorded cytotoxicity at 70.5 h?
Data returned: -0.859

Data request: Look up cytotoxicity at 70.5 h for this molecule: O=C(CCCOc1ccc(F)cc1)N1CCCC(n2cccn2)C1 (configuration not stated)
Data returned: 0.781

Data request: Recorded cytotoxicity at 70.5 h of Cc1cc(C(C)NC(=O)c2c[nH]c(=O)c(Cl)c2)c(C)o1 (configuration not stated) , please.
Data returned: -1.21

Data request: Fill blank: measured cytotoxicity at 70.5 h of the molecule Cc1ccnc(CC(C)N(C)c2cc(C3CCNCC3)nc(C)n2)c1 (configuration not stated) is ____.
Data returned: -3

Data request: Entry under review: CN(C)CCN1CCCC12CCCN(Cc1ccoc1)C2 (configuration not stated) . Reported cytotoxicity at 70.5 h?
Data returned: 13.7

Data request: Given the molecule `O=C(c1cnccn1)N1CCN2C[C@H](Oc3cccc(F)c3)C[C@H]2C1` , what is its reported cytotoxicity at 70.5 h?
Data returned: -2.2

Data request: Returns the measured cytotoxicity at 70.5 h for the input molecule. Input: `CCc1nc(C)sc1CN1CC[C@@](O)(C2CC2)[C@H](C)C1`
Data returned: -7.56

Data request: Quick one: cytotoxicity at 70.5 h of `CCOCc1nc(N2CCOCC2)sc1C(=O)NCc1ccco1` ?
Data returned: -6.85

Data request: Entry CN1CC(=O)N(c2ccccc2)CC12CCN(CC1CCOCC1)C2 (configuration not stated) : reported cytotoxicity at 70.5 h = ?
Data returned: 22.5

Data request: Looking for the measured cytotoxicity at 70.5 h of CCOc1ccc(C2CCCN2C(=O)NCCn2ccnc2)cc1 (configuration not stated) , can you help?
Data returned: -1.63

Data request: State the recorded cytotoxicity at 70.5 h for this entry: `CCOc1ccnc(N2CCN(Cc3ncccc3C)CC2)n1`
Data returned: 3.5

Data request: Which value of cytotoxicity at 70.5 h has been reported for COc1ccc(CC2CCCN2CCCC#N)cc1 (configuration not stated) in the records?
Data returned: -4.33

Data request: Name the recorded cytotoxicity at 70.5 h for `CCc1cc(N2CCC(N3CCSCC3)CC2)n2nccc2n1` .
Data returned: -7.5

Data request: So what does the record say about cytotoxicity at 70.5 h for `O=C(c1cccnc1SC/C=C/c1ccccc1)N1CC[C@H](O)C1` ?
Data returned: 2.11

Data request: If you can, please state the reported cytotoxicity at 70.5 h value of `CC(C)c1sc(Cl)nc1C(=O)N1CCN(Cc2ccccc2)CC1` .
Data returned: 27.3

Data request: Quick one: cytotoxicity at 70.5 h for O=S(=O)(c1cn[nH]c1)N1CCC(O)(CN2CCOCC2)C1 (configuration not stated) ?
Data returned: 4.95

Data request: Fill in the blank: the reported cytotoxicity at 70.5 h of Cc1cc(C)cc(C(=O)N2CCCC3(CCCC(=O)N3C)C2)c1 (configuration not stated) is ____.
Data returned: -14.4

Data request: Field request: cytotoxicity at 70.5 h | item: `Cc1ccsc1C(=O)N1Cc2ccccc2C2(CCN(C)CC2)C1`
Data returned: -6.4

Data request: Any idea what cytotoxicity at 70.5 h was measured for Cc1cc2n(n1)CC(CNCc1ccc(Oc3ccccc3)nc1)CN2 (configuration not stated) ?
Data returned: 21.7

Data request: # cytotoxicity at 70.5 h lookup, item Cc1noc(C)c1CNCC1COCc2c(-c3ccsc3)nnn2C1 (configuration not stated)
Data returned: -15.2

Data request: Need cytotoxicity at 70.5 h of `CCCC(=O)N(CCN1CCOCC1)c1nc2c(OC)ccc(C)c2s1` , thanks.
Data returned: -7.03

Data request: What measured cytotoxicity at 70.5 h goes with Cc1nc(CN2CCCC(NCc3cnc(C(C)(C)C)s3)C2)no1 (configuration not stated) ?
Data returned: 2.91

Data request: Param item = `CN(CCC#N)C(=O)CN1CCCN(Cc2noc(C3CC3)n2)CC1` ; retrieve measured cytotoxicity at 70.5 h.
Data returned: -0.995

Data request: Given the entry `c1cncc(OC[C@@H]2CCC[C@@]23CN(Cc2nccs2)CCO3)c1` , report its measured cytotoxicity at 70.5 h.
Data returned: -2.19

Data request: For the molecule `CS(=O)(=O)N1CCCn2nc(CNc3ncccn3)cc2C1` , what cytotoxicity at 70.5 h is on record?
Data returned: -1.06

Data request: # query: cytotoxicity at 70.5 h of entry `Cc1ccc(-c2nc(C(=O)N(C)C3CCN(C)CC3)cs2)c(C)c1`
Data returned: -1.64

Data request: Entry `O=C(c1c[nH]cn1)N1CCCn2c(nnc2Cn2cccc2)C1` : reported cytotoxicity at 70.5 h = ?
Data returned: -1.3

Data request: // lookup cytotoxicity at 70.5 h for `COCCN(Cc1ccccc1C)c1nc(C)nc2oc(C)nc12`
Data returned: 0.842

Data request: Which cytotoxicity at 70.5 h is listed for `CC(C)C1=NOC2(CCN(Cc3c[nH]c4ccccc34)CC2)C1` ?
Data returned: 4.04

Data request: State the recorded cytotoxicity at 70.5 h for this entry: `N#Cc1ccc(CN2C[C@@H]3OCC(=O)N(CC(N)=O)[C@@H]3C2)cc1`
Data returned: -3.35

Data request: cytotoxicity at 70.5 h lookup needed for Cc1cccc(S(=O)(=O)N2CSCC2C(=O)NC(C)(C)C)c1 (configuration not stated) , thanks.
Data returned: -3.48

Data request: Data request, read-out cytotoxicity at 70.5 h, for `COCCCNC(=O)c1ccn(-c2ccc3ccccn23)n1`
Data returned: -12.6

The values you see were collected from ChEMBL document CHEMBL3507680.
